Provide the recorded t1/2 (half-life of the complex, SPR) for the entries that follow.
- system: Fc-fusion protein of human carbonic anhydrase IX (human, UniProt Q16790 38-414)
- measurement_protocol: SPR, captured hCAIX-Fc; t1/2 category B: 5.1-15.0 min
Starred links: 1 amine or outer side, 2 acyl side, 3 side chain; linkers in the order of their positions; H or OH if unused. Positions of bridges follow the written chain, without caps; N, C: chain ends. Non-standard residues stand in square brackets, D forms with d. Groups on a side chain read outwards from the residue. Primed or numbered codes have the meaning given here. *: point of attachment. af3(ac-asp) = lower case: 3-amino-D-phenylalanine, ring amine acylated with N-acetyl-D-aspartic acid, CC(=O)N[C@H](CC(=O)[*:3])C(=O)Nc1cccc(C[C@@H](N[*:1])C(=O)[*:2])c1; Aph(2Ta5Sa)″ = 4-amino-L-phenylalanine, ring amine acylated by 5-sulfamoyl-thiophene-2-carboxylic acid, NS(=O)(=O)c1ccc(C(=O)Nc2ccc(C[C@H](N[*:1])C(=O)[*:2])cc2)s1; DOTA(In) = O=C1CN2CCN3CCN(CC(=O)*)CCN(CC2)CC(=O)[O][In]([O]1)[O]C(=O)C3; APAc″ = 2-(4-(amino)piperidin-1-yl)acetic acid, NC1CCN(CC(=O)*)CC1; DOTA = O=C(O)CN1CCN(CC(=O)O)CCN(CC(=O)*)CCN(CC(=O)O)CC1; Phe(3-CF3) = N[C@@H](Cc1cccc(C(F)(F)F)c1)C(=O)O; mXylylene = c1cc(C[*:1])cc(C[*:2])c1; Isovaleryl = CC(C)CC(=O)*; PPAc″ = not defined here; APAc = not defined here; Apr = not defined here; Dap = NC[C@H](N)C(=O)O; AEEA = NCCOCCOCC(=O)O; Ttds″ = Ttds spacer

Reference set (3 entries):
binder	t1/2 (half-life of the complex, SPR)
{DOTA}-DCE[dP]DWLTW[Dap]C-NH2 (lactam 10-1; linker 2-11 via mXylylene; SMILES CC(C)C[C@@H]1NC(=O)[C@H](Cc2c[nH]c3ccccc23)NC(=O)[C@H](CC(=O)O)NC(=O)[C@H]2CCCN2C(=O)[C@H](CCC(=O)O)NC(=O)[C@@H]2CSCc3cccc(c3)CSC[C@@H](C(N)=O)NC(=O)[C@H](CNC(=O)C[C@H](NC(=O)CN3CCN(CC(=O)O)CCN(CC(=O)O)CCN(CC(=O)O)CC3)C(=O)N2)NC(=O)[C@H](Cc2c[nH]c3ccccc23)NC(=O)[C@H]([C@@H](C)O)NC1=O) [3BP-4253]	5.1 to 15 min
{DOTA(In)}-YCE[dP]KWLEWSC-NH2 (linker 2-11 via mXylylene; lactam 5-8; also: indium complexed by DOTA) [3BP-4053]	5.1 to 15 min
Ac-K(DOTA)VYCE[dP]DWLTWSC-NH2 (linker 4-13 via 3MeBn) [3BP-3840]	5.1 to 15 min

Please give t1/2 (half-life of the complex, SPR) for each item listed below.
1. {DOTA-APAc″}-VYCE[dP]D[af3(ac-asp)]LTWSC-NH2 (linker 3-12 via mXylylene; not fully specified) [3BP-4364]
2. {DOTA-Ttds″}-VYCE[dA]DWLTWAC-NH2 (linker 3-12 via mXylylene; not fully specified) [3BP-3279]
3. {DOTA-PPAc″}-YCE[dP]D[Aph(2Ta5Sa)″]LTWSC-NH2 (linker 2-11 via mXylylene; reading uncertain) [3BP-4457]
4. {DOTA-APAc}-VYCE[dP]D[Phe(3-CF3)]LTWSC-NH2 (linker 3-12 via mXylylene; not fully specified; reading uncertain) [3BP-4135]
5. Isovaleryl-YCE[dP]DWLTWE([Apr-AEEA-DOTA])C-NH2 (linker 2-11 via 3MeBn; reading uncertain) [3BP-3740]

5.1 to 15 min
5.1 to 15 min
5.1 to 15 min
5.1 to 15 min
5.1 to 15 min

Every entry's value here was drawn from patent US20250339569A1.
